For each of the compounds below, state its melting point.

Given the compound O=C(O)CN1C(=O)C(=Cc2ccc3ccccc3c2)SC1=S , what is its reported melting point?
257 to 264 °C

Given the compound OCC(O)COCCCCCCCCOc1ccc(-c2ccccc2)cc1 (centres undefined) , what is its reported melting point?
94 to 96 °C

Given the compound C1=c2ccccc2=C2N=c3ccc4ccccc4c3=C2C1 , what is its reported melting point?
238 °C

Given the compound O=c1n(CO)c2ccccc2n1CO , what is its reported melting point?
157 to 161 °C

Given the compound CC1=C(c2ccncc2)CCC(=O)N1 , what is its reported melting point?
175 to 177 °C

Given the compound O=C(O)CCCc1ccc(CCNS(=O)(=O)c2ccccc2)cc1 , what is its reported melting point?
70 to 71 °C

Given the compound CC(=O)Nc1c(C#N)oc2ccccc12 , what is its reported melting point?
164 to 167 °C

Given the compound O=C1Cn2ncnc2-c2ccccc2N1 , what is its reported melting point?
223 °C

Given the compound Cc1cc(C)c(C(=O)c2cc(C(C)(C)C)c(O)c(C(C)(C)C)c2)c(Cl)n1 , what is its reported melting point?
109 to 110 °C

Given the compound CCC(=O)Nc1cc(C2=NCCO2)ccc1OCCCCCc1cc(C)no1 , what is its reported melting point?
133 to 134 °C

Given the compound COc1ccccc1N1CCN([C@@H]2Cc3c(cccc3OC)C[C@H]2O)CC1 (relative stereo) , what is its reported melting point?
138 to 141 °C

Given the compound Cc1cc(NC(=O)OC(C)(C)C)c(N)cc1-c1ccc(F)cc1 , what is its reported melting point?
112 °C

Given the compound CC(C)(C)OC(=O)Nc1ccc(C#Cc2ccc(OC(F)(F)F)cc2)cc1[N+](=O)[O-] , what is its reported melting point?
129 to 131 °C

Given the compound c1ccc(COc2c(-c3ccccc3)n[nH]c2-c2ccccc2)cc1 , what is its reported melting point?
152 °C

---

For each of the molecules below, state its melting point.

Given the molecule O=C(CC1(c2ccccc2)CCCCC1)C(=O)Nc1ccc2c(c1)COC2=O , what is its reported melting point?
120 to 123 °C

Given the molecule O=C1NN=C(c2cc3ccccc3o2)CO1 , what is its reported melting point?
209 to 211 °C

Given the molecule CN(C)C(C)(O)CC12CCC(c3ccccc31)c1ccccc12 (stereo not drawn) , what is its reported melting point?
118 to 121 °C

---

For each of the molecules below, state its melting point.

Given the molecule COC1=C(OC)C(=Nc2ccc(Cl)c(Cl)c2)N(C)C1=O , what is its reported melting point?
111 to 113 °C

Given the molecule COC(=O)Cc1ccc2c(c1)N(C)Cc1ccccc1C2=O , what is its reported melting point?
88.4 to 90.5 °C

Given the molecule O=C(Nc1ccc2[nH]c(=O)n(CCCCN3CC=C(c4ccccc4)CC3)c(=O)c2c1)C(F)(F)F , what is its reported melting point?
245 °C

Given the molecule CC(=O)O[C@@H]1OCC[C@@H]1NC(=O)[C@H](CC(C)C)NC(=O)c1ccc(N)cc1 , what is its reported melting point?
148 to 150 °C

Given the molecule Cc1ccc(C(=O)O)c(Sc2nc(C)c(CC(=O)O)s2)n1 , what is its reported melting point?
223 to 225 °C

Given the molecule COc1ccc(CC2CNC(=O)N2)cc1OC1CCCC1 (centres undefined) , what is its reported melting point?
107 to 111 °C

Given the molecule CNn1cc(C(=O)O)c(=O)c2cc(F)c(Cl)cc21 , what is its reported melting point?
275 to 279 °C

Given the molecule COc1cc(C)c(CCCCCCCCCC(=O)CCCCCCCCCCCC(=O)O)c(O)c1OC , what is its reported melting point?
63 to 64 °C

Given the molecule c1ccc2c(c1)C[C@H]1CSC(=Nc3cccc4ccncc34)N1C2 , what is its reported melting point?
206 °C

Given the molecule CN1CCc2c(c(Br)cc3nc(OCc4ccccc4)c(OCc4ccccc4)nc23)C1 , what is its reported melting point?
147 °C

Given the molecule O=C(O)C1CCN2c3ccc(Cl)cc3Oc3ccccc3C2C1 (centres undefined) , what is its reported melting point?
209 to 211 °C

Given the molecule O=c1ccc(-c2ccnnc2)c[nH]1 , what is its reported melting point?
> 250 °C

Given the molecule Cc1ccc(NC(=O)c2cc(Cl)c(O)c(Cl)c2)c(O)c1 , what is its reported melting point?
246 to 247 °C

Given the molecule COc1c(Cl)c(F)cc2c(=O)c(C(=O)O)cn(C3CC3)c12 , what is its reported melting point?
195 to 199 °C

Given the molecule CC1=C(C(=O)OC(C)(C)C)C(c2ccc(F)c(Br)c2)C(C(=O)OC(C)(C)C)=C(C)N1 , what is its reported melting point?
171 to 172 °C

Given the molecule CCCCCCCCCCCCCCOc1ccc(CC(=O)OC)cc1 , what is its reported melting point?
36 to 38 °C

Given the molecule NC(=O)c1nc(-c2cccc(O)c2)nc2c1[nH]c(=O)n2CC1CCOCC1 , what is its reported melting point?
363 to 365 °C

Given the molecule OC(CS)(Cn1cncn1)c1ccc(F)cc1F (centres undefined) , what is its reported melting point?
112 to 113 °C

Given the molecule CCCc1ccc2c(c1)C=Cc1cc(C)ccc1C2c1cn(-c2ccnc(N(C)CC(=O)O)n2)c(=O)[nH]c1=S (centres undefined) , what is its reported melting point?
145 to 150 °C

Given the molecule CN(CCCNC(=O)c1ccccc1)CCCc1c[nH]c2ccccc12 , what is its reported melting point?
73 to 74 °C

Given the molecule CCS(=O)(=O)Nc1c(C)c(C)cc2nc(OC)c(OC)nc12 , what is its reported melting point?
201 to 203 °C

Given the molecule CCOCc1nc2c(N)nc3cccnc3c2n1CC(C)(C)OCCS(C)(=O)=O , what is its reported melting point?
189 to 191 °C

Given the molecule CCCOC1(C(F)(F)F)CN(C2CC2)C(=O)Nc2ccc(Cl)cc21 (centres undefined) , what is its reported melting point?
153 to 154 °C

Given the molecule Cc1cccc(Nc2cc(Cl)nc(SCC(=O)NC(C)CO)n2)c1C (centres undefined) , what is its reported melting point?
170 to 172 °C
